# Experiment: Henry solubility constant Hcp at 298.15 K (mol/(m3 Pa))
# Test conditions: reference: Altschuh et al. (1999)
// thresholds for Henry solubility constant Hcp classes: bottom end: < 0.7; midrange: ≥ 0.7 and < 2; top end: ≥ 2

[[record]]
molecule = "ClC1=C(Cl)[C@]2(Cl)[C@@H]3[C@@H]4C[C@@H]([C@H]5O[C@@H]45)[C@@H]3[C@@]1(Cl)C2(Cl)Cl [dieldrin]"
class_name = "midrange"

[[record]]
molecule = "CCC(O)CO (stereo not given) [1,2-butanediol]"
class_name = "top end"

[[record]]
molecule = "ClC1=C(Cl)C2(Cl)C3C(Cl)C=CC3C1(Cl)C2(Cl)Cl (stereo not given) [heptachlor]"
class_name = "bottom end"

[[record]]
molecule = "O=[N+]([O-])c1ccc(Cl)c(Cl)c1 [1,2-dichloro-4-nitrobenzene]"
class_name = "midrange"

[[record]]
molecule = "ClC(Cl)=C(c1ccc(Cl)cc1)c1ccc(Cl)cc1 [1,1-dichloro-2,2-bis-(4-chlorophenyl)-ethene]"
class_name = "bottom end"

[[record]]
molecule = "CCCCCCCCCCO [1-decanol]"
class_name = "bottom end"

[[record]]
molecule = "Cc1ccccc1 [methylbenzene]"
class_name = "bottom end"

[[record]]
molecule = "ClC1C(Cl)C(Cl)C(Cl)C(Cl)C1Cl (stereo not given) [γ-1,2,3,4,5,6-hexachlorocyclohexane]"
class_name = "midrange"

[[record]]
molecule = "Nc1ccccc1 [aminobenzene]"
class_name = "top end"

[[record]]
molecule = "Cc1cccc([N+](=O)[O-])c1 [3-nitrotoluene]"
class_name = "midrange"

[[record]]
molecule = "CCCCCCCO [1-heptanol]"
class_name = "midrange"

[[record]]
molecule = "ClC1=C(Cl)C2(Cl)C3C4OC4C(Cl)C3C1(Cl)C2(Cl)Cl (stereo not given) [heptachlorepoxide]"
class_name = "bottom end"

[[record]]
molecule = "Cc1cccc(N)c1 [3-methylbenzenamine]"
class_name = "top end"

[[record]]
molecule = "CCCCN [1-butanamine]"
class_name = "bottom end"

[[record]]
molecule = "OCc1ccccc1 [(hydroxymethyl)-benzene]"
class_name = "top end"

[[record]]
molecule = "O=[N+]([O-])c1cc(Cl)ccc1Cl [1,4-dichloro-2-nitrobenzene]"
class_name = "midrange"

[[record]]
molecule = "c1ccccc1 [benzene]"
class_name = "bottom end"

[[record]]
molecule = "Cc1cccc2ccccc12 [1-methylnaphthalene]"
class_name = "bottom end"

[[record]]
molecule = "c1ccc2c(c1)cc1ccc3cccc4ccc2c1c34 [benzo[a]pyrene]"
class_name = "top end"

[[record]]
molecule = "CC(C)O [2-propanol]"
class_name = "midrange"

[[record]]
molecule = "OCCCCO [1,4-butanediol]"
class_name = "top end"

[[record]]
molecule = "Cc1ccc2ccccc2c1 [2-methylnaphthalene]"
class_name = "bottom end"

[[record]]
molecule = "Cc1ccc([N+](=O)[O-])cc1 [4-nitrotoluene]"
class_name = "midrange"

[[record]]
molecule = "O=[N+]([O-])c1ccccc1 [nitrobenzene]"
class_name = "midrange"

[[record]]
molecule = "CCCCCCCCCCCCCN [1-tridecanamine]"
class_name = "bottom end"

[[record]]
molecule = "C#CC(C)(C)O [2-methyl-3-butyn-2-ol]"
class_name = "top end"

[[record]]
molecule = "CN(C)C1CCCCC1 [N,N-dimethylcyclohexylamine]"
class_name = "bottom end"

[[record]]
molecule = "ClC1=C(Cl)[C@]2(Cl)[C@@H]3[C@H]4C[C@H]([C@@H]5O[C@H]45)[C@@H]3[C@@]1(Cl)C2(Cl)Cl [endrin]"
class_name = "midrange"

[[record]]
molecule = "Nc1cccc2ccccc12 [1-naphthylamine]"
class_name = "top end"

[[record]]
molecule = "C=CC(C)(O)CCC=C(C)C (stereo not given) [3,7-dimethyl-1,6-octadien-3-ol]"
class_name = "bottom end"

[[record]]
molecule = "CCCCNCCCC [dibutylamine]"
class_name = "midrange"

[[record]]
molecule = "CCO [ethanol]"
class_name = "midrange"

[[record]]
molecule = "ClC1C(Cl)C(Cl)C(Cl)C(Cl)C1Cl (stereo not drawn) [α-1,2,3,4,5,6-hexachlorocyclohexane]"
class_name = "midrange"

[[record]]
molecule = "Nc1cccc(Cl)c1 [1-amino-3-chlorobenzene]"
class_name = "top end"

[[record]]
molecule = "C=CC(C)(C)O [2-methyl-3-buten-2-ol]"
class_name = "bottom end"

[[record]]
molecule = "CC(C)CO [2-methyl-1-propanol]"
class_name = "midrange"

[[record]]
molecule = "CCCCCCO [1-hexanol]"
class_name = "midrange"

[[record]]
molecule = "CCCCCCCCO [1-octanol]"
class_name = "bottom end"

[[record]]
molecule = "OCCCCc1ccccc1 [4-phenyl-1-butanol]"
class_name = "top end"

[[record]]
molecule = "Nc1ccccc1[N+](=O)[O-] [2-nitrobenzenamine]"
class_name = "top end"

[[record]]
molecule = "COc1ccc(C(c2ccc(OC)cc2)C(Cl)(Cl)Cl)cc1 [methoxychlor]"
class_name = "top end"

[[record]]
molecule = "OCC#CCO [2-butyne-1,4-diol]"
class_name = "top end"

[[record]]
molecule = "NC1CCCCC1 [cyclohexanamine]"
class_name = "top end"

[[record]]
molecule = "Nc1ccc([N+](=O)[O-])cc1Cl [2-chloro-4-nitrobenzenamine]"
class_name = "top end"


====

Below, each entry is listed alongside its reported Henry solubility constant Hcp.
# Experiment: Henry solubility constant Hcp at 298.15 K (mol/(m3 Pa))
# Test conditions: reference: Altschuh et al. (1999)
Parameter measured: Henry solubility constant Hcp

[[record]]
compound = "CCc1cccc2ccccc12"
comparator = "="
result_value = 0.014

[[record]]
compound = "Cc1cccc(O)c1 [1-hydroxy-3-methylbenzene]"
comparator = "="
result_value = 12

[[record]]
compound = "CCNc1ccccc1 [(ethylamino)-benzene]"
comparator = "="
result_value = 1

[[record]]
compound = "CCCCCCCCCCCCN(C)C"
comparator = ">"
result_value = 4

[[record]]
compound = "CC1CCCC(O)C1 (stereo unspecified)"
comparator = "="
result_value = 2.7

[[record]]
compound = "ClC1=C(Cl)[C@]2(Cl)[C@H]3[C@H]([C@@H]4C=C[C@H]3C4)[C@@]1(Cl)C2(Cl)Cl"
comparator = "="
result_value = 0.22

[[record]]
compound = "c1ccc2ccccc2c1"
comparator = "="
result_value = 0.018

[[record]]
compound = "ClC1C(Cl)C(Cl)C(Cl)C(Cl)C1Cl (stereo not drawn) [β-1,2,3,4,5,6-hexachlorocyclohexane]"
comparator = "="
result_value = 22

[[record]]
compound = "CCc1ccc2ccccc2c1"
comparator = "="
result_value = 0.018

[[record]]
compound = "O=[N+]([O-])c1cccc(Cl)c1"
comparator = "="
result_value = 0.73

[[record]]
compound = "Cc1ccccc1N"
comparator = "="
result_value = 5

[[record]]
compound = "Cc1ccccc1O [1-hydroxy-2-methylbenzene]"
comparator = "="
result_value = 6.3

[[record]]
compound = "OCCCc1ccccc1"
comparator = ">"
result_value = 180

[[record]]
compound = "OCCc1ccccc1"
comparator = ">"
result_value = 37

[[record]]
compound = "Cc1ccc(O)cc1 [1-hydroxy-4-methylbenzene]"
comparator = ">"
result_value = 2.9

[[record]]
compound = "Nc1ccc([N+](=O)[O-])cc1"
comparator = "="
result_value = 8600

[[record]]
compound = "Clc1ccc(C(c2ccc(Cl)cc2)C(Cl)Cl)cc1"
comparator = "="
result_value = 1.5

[[record]]
compound = "OC1CCCCCCCCCCC1"
comparator = "="
result_value = 3.4

[[record]]
compound = "O=[N+]([O-])c1cccc2ccccc12"
comparator = "="
result_value = 5.6

[[record]]
compound = "CCCO"
comparator = "="
result_value = 2.7

[[record]]
compound = "Clc1ccc(C(c2ccc(Cl)cc2)C(Cl)(Cl)Cl)cc1"
comparator = "="
result_value = 1.2

